Reference for the values: a melting point compilation (Tetko et al.; mined from patent text by program, amines drawn as free bases though some values may be those of a salt)

Parameter melting point: see the listing below.

- CN(C)Cc1nnc2n1-c1ccccc1C(c1ccccc1)=NC2: 181 to 182 °C

From here, focus on the item given below.
Returns the measured melting point for the input compound. Input: CCOc1ccccc1COc1ccc2c(c1)C=C(C(=O)Nc1ccc(CN(C)C3CCOCC3)cc1)CCS2(=O)=O
211 to 214 °C

====

Parameter melting point: see the listing below.

See these solved cases before continuing.
• Cn1cnc2cc(C(=O)NC3CC3)c(NC(=O)c3cc(C(F)(F)F)nn3-c3ncccc3Cl)c(Cl)c21 = 148 to 151 °C
• O=C1N(CC2CCCN2)c2ccccc2C12COc1cc3c(cc12)CCO3 (stereo not drawn) = 83 to 86 °C

From here, focus on the item given below.
Returns the measured melting point for the input molecule. Input: CCCc1nc2c(N)nc3cc(-c4cccnc4)ccc3c2n1CCCCNC(=O)OC(C)(C)C
136 to 138 °C

====

Parameter melting point: see the listing below.

Returns the measured melting point for the input compound. Input: COC(=O)/C=C/c1c(OC)cccc1OC
76 to 78 °C

Returns the measured melting point for the input compound. Input: Cc1c(N)cccc1-c1cn(C)c(=O)c(Nc2ccc(C(=O)N3CCOCC3)cc2)n1
274 to 275 °C

Returns the measured melting point for the input compound. Input: Nc1nc(NCCN2CCOCC2)nc2nc(-c3ccco3)nn12
242 to 244 °C

Returns the measured melting point for the input compound. Input: Cc1nnc2n1-c1sc(Cl)cc1C(c1ccccn1)=NC2
174 to 176 °C

Returns the measured melting point for the input compound. Input: COc1ccc(N2CCN(CC[C@H]3CC[C@H](NC(N)=O)CC3)CC2)c(Cl)c1Cl
195 to 198 °C

Returns the measured melting point for the input compound. Input: COc1cc(Nc2nc3cccc(-c4ccc(S(=O)(=O)N(C)C)cc4)c3o2)cc(OC)c1OC
230 to 233 °C

Returns the measured melting point for the input compound. Input: CCCCOCCOc1ccc(-c2ccc3c(c2)C=C(C(=O)O)CCN3CC2CC2)cc1
152 to 155 °C

Returns the measured melting point for the input compound. Input: COc1ccccc1N1CCN(CCCCCS(=O)(=O)c2cccc3c(=O)c(C)c(-c4ccccc4)oc23)CC1
120 to 123 °C

Returns the measured melting point for the input compound. Input: CN(C)c1ccc(C(c2ccc(N(C)C)cc2)c2ccc(N(C)C)cc2C(=O)O)cc1
210 to 212 °C

Returns the measured melting point for the input compound. Input: CCOCc1nc2c(N)nc3ccccc3c2n1CC(C)(C)OCCS(=O)(=O)c1ccccc1
187 to 189 °C

Returns the measured melting point for the input compound. Input: CCOC(=O)C(=O)CC(=O)CC(=O)c1ccc(C)cc1
76 °C

Returns the measured melting point for the input compound. Input: CCCCOC(=O)c1ccc(-c2cc(-c3ccc4c(c3)C(C)(C)CCC4(C)C)nc(O)n2)cc1
267 to 277 °C

Returns the measured melting point for the input compound. Input: CCOc1ncc(Cl)cc1C1OC(=O)NC1=O (configuration not stated)
119 to 124 °C

Returns the measured melting point for the input compound. Input: CC(C)(C)COCCOc1ccc(OCC(O)CNCCNC(=O)N2CCOCC2)cc1 (configuration not stated)
90 °C

Returns the measured melting point for the input compound. Input: COc1cc(N)nc(N2CCOCC2)n1
162 to 164 °C
